Entry source: the supplement of paper PMC9170038

System: MS2 coat protein
protocol: apparent KD of MS2 coat protein; higher = weaker reporter binding
details: Eterna round: R107; input ligand: theophylline 20 uM
Binary call on apparent KD of MS2 coat protein: fulfilled from 20 nM upward, not fulfilled beneath that.

A selection of reference data follows.
[[record]]
chain_sequence = "AUACAUGAGGAUCACCCAUGUUAUAGUGAAGGAGCGACGUUUAUGUCAGGUAGGUCGCACUGUUGUUUAAUGAUUCUUGGAUCUU [#21 Exclusion - Arginine A]"
assigned_label = "fulfilled"

[[record]]
chain_sequence = "GGUCUCUGGAGCGAUACCAGCUUGAGUGUACUGGCCAGGUACAUGAGGAUCACCCAUGUAAGCCCUUGGCAGCGCUGCAGAGACC [#1 Exclusion - Theophylline B Attempt #16 (HarryS)]"
assigned_label = "not fulfilled"

[[record]]
chain_sequence = "AGUAUUGGAAACAGUACUAGUGAUCCGGUCCGAGGACCGGUACGGCCGCCACUCGAAUUAAAUAAACAUGAGGAUCACCCAUGUA [Ex Tryptophan A 15]"
assigned_label = "not fulfilled"

[[record]]
chain_sequence = "AAACAUUGCUCAGAUACCAGACAUGAGGAUCACCCAUGUACCAAGGUAACCGAAAGGCAUGUCCCUUGGCAGCUGAGCAAUGAAA [MAT - Exclusion Theophlline B - Mod of Eli - D15]"
assigned_label = "not fulfilled"

[[record]]
chain_sequence = "ACAUGAGGAUCACCCAUGUAAAUCCUCGAUACCAGCCAAAGGAGAGGCCCUUGGCAGCGGAAAGGCCGGGUAUAAAUGUCCGGCC"
assigned_label = "fulfilled"


With those in mind, consider the next sequence.
Please tell me: is the sequence CUAUAAGUAACUGAUACCAGUGUACUGACAUGAGGAUCACCCAUGUUGGGUUUUGUUGUACACCCUUGGCAGCAGAAUCUUGUAG [AstrosExyTheB#15] at or over 20 nM in terms of apparent KD of MS2 coat protein?
fulfilled

---

Entries and their measured apparent KD of MS2 coat protein follow.
Tested on: MS2 coat protein
protocol: apparent KD of MS2 coat protein; designed switch direction (-1 OFF switch, 1 ON switch): -1; higher = weaker reporter binding
details: Eterna round: R95; input ligand: none
Provide only the numeric value, understood in µM.

Answered cases to consult:
[[record]]
chain_sequence = "AGAUGGCGAGGAUAUACAUGAGGAUCACCCAUGUGAGAUAAAAUAGUGAGGAAGAAAAGUAGAAGGCGCUGUCA [Mat - Exclusion 3 - Mod of Salish D15] (puzzle: Exclusion 3)"
recorded_measurement = 0.073

[[record]]
chain_sequence = "CGGUGCUGAGGAUAUACAUGAGGAUCACCCAUGUGUUCCUGCUAGGUGACUGGCAAAUGUAGAAGGCGGUACUG [JL-ex3-3.37 Brourd mod] (puzzle: Exclusion 3)"
recorded_measurement = 0.131

[[record]]
chain_sequence = "UAAUACAUCUAUGGGAGUAACAUGAGGAUCACCCAUGUAUGUCUUGUUUUUUGUUCGUCAUAGACUUUCUGAUCAGU [JR_SV3TOV1_Sub029] (puzzle: Sensor v3, turn-off variant 1)"
recorded_measurement = 0.0522


Input CAUGCUUCGGCAUGUACAAGCUUUUUGCUCGUCUUAUUAACAUGAGGAUCACCCAUGUCAAAGAGACCUCAUGUAUU [Sensor v3 - turn-off variant 2 - 3] (puzzle: Sensor v3, turn-off variant 2) , output reported apparent KD of MS2 coat protein.
0.263

Input GAGGCAUGCCGAGGUCCACACAUGAGGAUCACCCAUGUCAUGACAGGCUUUUUACUCGUUUUAUCGCUAUCGCGUUC [Vebizaledi] (puzzle: Sensor v3, turn-off variant 1) , output reported apparent KD of MS2 coat protein.
0.0707
